Listing of recorded CC50 at 4 days by entry.
# method: Cytotoxicity (methylene blue / MTS assay), CC50
# condition context: African green monkey, Vero-118 cells
The figure you give is taken to be in µM; do not add the unit.

C[C@@]1(O)[C@H](O)[C@@H](CO)O[C@H]1n1ccc(N)nc1=O : 117

Lab note: next molecule to report on.
Look up CC50 at 4 days for this molecule: CC[C@H](C)[C@H]1O[C@]2(CC[C@@H]1C)C[C@@H]1C[C@@H](C/C=C(\C)[C@@H](O[C@H]3C[C@H](OC)[C@@H](O[C@H]4C[C@H](OC)[C@@H](O)[C@H](C)O4)[C@H](C)O3)[C@@H](C)/C=C/C=C3\CO[C@@H]4[C@H](O)C(C)=C[C@@H](C(=O)O1)[C@]34O)O2 [Ivermectin, 22,23-dihydroavermectin B1] 5.7
